Sourced from the COVID Moonshot data (paper PMC11187573)

# target: SARS-CoV-2 Main Protease (SARS-CoV-2)
# measurement.conditions: 50.0 µM
readout.name: inhibition (%)

[[record]]
compound = "O=C(Nc1cccnc1)c1cccc(Cl)c1"
target = "SARS-CoV-2 Main Protease (SARS-CoV-2)"
readout_name = "inhibition"
reported_value = 6.67

[[record]]
compound = "C=C(CN(C)C)C(=O)N1Cc2ccccc2C(c2ccccc2)C1 (stereo unspecified)"
target = "SARS-CoV-2 Main Protease (SARS-CoV-2)"
readout_name = "inhibition"
reported_value = 10.3

[[record]]
compound = "C=CC(=O)N(c1ccc2ncsc2c1)C(C(=O)Nc1cccc(CC)c1)c1cccnc1 (stereo unspecified)"
target = "SARS-CoV-2 Main Protease (SARS-CoV-2)"
readout_name = "inhibition"
reported_value = 59.3

[[record]]
compound = "CC1CN(Cc2ccccc2NC(=O)NCc2cnsc2)CC(C)O1 (stereo unspecified)"
target = "SARS-CoV-2 Main Protease (SARS-CoV-2)"
readout_name = "inhibition"
reported_value = 4.44

[[record]]
compound = "CC1(C)CC(C(=O)Nc2nncn2C2CC2)c2ccccc2O1 (stereo unspecified)"
target = "SARS-CoV-2 Main Protease (SARS-CoV-2)"
readout_name = "inhibition"
reported_value = -5.02

[[record]]
compound = "C=CC(=O)N(c1ccc(C(C)(C)C)cc1)C(C(=O)NCC1CCCO1)c1cccnc1 (stereo unspecified)"
target = "SARS-CoV-2 Main Protease (SARS-CoV-2)"
readout_name = "inhibition"
reported_value = 44.1

[[record]]
compound = "CC(C)Cn1cc(NC(=O)N2CCC(c3ccccc3)C2)c2ccccc2c1=O (stereo unspecified)"
target = "SARS-CoV-2 Main Protease (SARS-CoV-2)"
readout_name = "inhibition"
reported_value = 0.973

[[record]]
compound = "CC(c1cccc(NC(=O)Cc2cnccc2Cl)c1)N1CCOCC1 (stereo unspecified)"
target = "SARS-CoV-2 Main Protease (SARS-CoV-2)"
readout_name = "inhibition"
reported_value = 3.92

[[record]]
compound = "O=C(O)[C@@H](c1ccccc1)N1Cc2ccccc2C1=O (stereo in doubt)"
target = "SARS-CoV-2 Main Protease (SARS-CoV-2)"
readout_name = "inhibition"
reported_value = 99.4

[[record]]
compound = "O=C(NCc1ccc2c(c1)OCO2)c1nc(S(=O)(=O)Cc2ccccc2)ncc1Cl"
target = "SARS-CoV-2 Main Protease (SARS-CoV-2)"
readout_name = "inhibition"
reported_value = 99.8

[[record]]
compound = "COc1ccc(C(=O)Nc2cccc(/C=C3/C(=O)NC(=O)c4ccccc43)c2)cc1"
target = "SARS-CoV-2 Main Protease (SARS-CoV-2)"
readout_name = "inhibition"
reported_value = -22.9


====

# target: SARS-CoV-2 Main Protease (SARS-CoV-2) (UniProt P0DTD1)
# measurement.conditions: 50.0 µM
Please mark Fulfilled if the recorded inhibition is equal to or greater than 30%, and Not fulfilled if it falls below.

[[record]]
compound = "Cc1ccncc1NC(=O)[C@@H]1CNC(=O)O1 (stereo in doubt)"
label_class = "Not fulfilled"

[[record]]
compound = "COc1ccccc1OC(C)CNC(=O)c1cc(=O)[nH]c2cc(F)ccc12 (stereo not given)"
label_class = "Not fulfilled"

[[record]]
compound = "CC(=O)NCCc1c[nH]c2c(CN3CCN(C(=O)CCl)CC3)cccc12"
label_class = "Fulfilled"

[[record]]
compound = "Cc1ccn2c(-c3ccc4[nH]ncc4c3)c(-c3ccc(F)cc3)nc2c1"
label_class = "Fulfilled"

[[record]]
compound = "O=C(Nc1nncn1C1CC1)[C@H]1CCOc2ccc(Cl)cc21 (stereo in doubt)"
label_class = "Not fulfilled"

[[record]]
compound = "Cc1cc(CC(=O)Nc2cnccc2C)[nH]n1"
label_class = "Not fulfilled"

[[record]]
compound = "Cn1cnnc1CNC(=O)Nc1cc(C(F)(F)F)c[nH]c1=O"
label_class = "Not fulfilled"

[[record]]
compound = "C=CC(=O)N(c1ccc(C(C)(C)C)cc1)C(C(=O)NC1CC1)c1cccnc1 (stereo not given)"
label_class = "Fulfilled"

[[record]]
compound = "NCCn1cc(C(=O)N2CC3(CCC3)c3cc(Br)ccc32)cn1"
label_class = "Not fulfilled"

